These entries and their values trace back to patent US8592175B2.

System: Candida glabrata NCPF 3 943
Assay: Color, fluorescence and growth of colonies on Columbia medium with nitroreductase substrate
Type: cell-based
Design: key: fluorescence of the colonies / Col.: color of the colonies: —: no color/fluorescence
Details: 40 mg substrate in 400 ml Columbia medium, 24 hours at 37° C., examined visually
quantity.measured: Col.: color of the colonies

| input.smiles | value |
| --- | --- |
| COc1cc([N+](=O)[O-])ccc1C=Cc1cc[n+](C)c2ccccc12.[I-] | — |
| C[n+]1ccc(C=Cc2ccc([N+](=O)[O-])cc2)c2ccccc21.[I-] | — |
| C[n+]1c(C=Cc2ccc([N+](=O)[O-])cc2)ccc2ccccc21.[I-] | — |
| O=[N+]([O-])c1ccc(C=Cc2ccc3ccccc3n2)cc1 | — |
